Molecular target: T1, human B7-H4 expressed on cells (human, UniProt Q7Z7D3 25-282)
T1 construct: the cell line is named under assay or readout; also called full length human B7-H4 on HEK293 cells; 293T.hB7-H4
T1 sequence: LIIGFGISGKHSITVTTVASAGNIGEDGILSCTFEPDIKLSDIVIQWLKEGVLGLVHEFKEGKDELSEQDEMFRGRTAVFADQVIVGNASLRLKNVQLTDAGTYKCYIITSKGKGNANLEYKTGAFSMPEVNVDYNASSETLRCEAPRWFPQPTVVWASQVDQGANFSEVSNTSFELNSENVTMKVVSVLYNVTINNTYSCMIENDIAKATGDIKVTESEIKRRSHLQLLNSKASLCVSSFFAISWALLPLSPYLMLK
Experiment: flow cytometry on HEK293.hB7-H4 transfectants, one-site specific binding fit
Measurement Type: Bmax(MFI)
Note: unit MFI is implicit; provide only the numeric part.

>>> reported_measurement("humanized 6H3 variant 9 (antibody, V domains shown, also called V9; 6H3 V9) VH: EVQLVQSGAEVKKPGASVKVSCKASGYTFTDYYMNWVRQAPGQGLEWIGIINPYNGDTSYNQKFKGRVTLTVDKSTSTAYMELSSLRSEDTAVYYCARYPESTYWGQGTLVTVSS VL: DIVMTQTPLSLPVTLGQPASISCRSSQSLVHINGNTYLHWYQQRPGQSPRVLIYKVSNRFSGVPDRFSGSGSGTDFTLKISRVEAEDVGVYFCSQSTHVPLTFGQGTKVEIK")
553
>>> reported_measurement("humanized 6H3 variant 13 (antibody, V domains shown, also called V13; H2B L2C) VH: EVQLVQSGAEMKKPGASVKVSCKASGYTFTDYYMNWVRQAPGQSLEWMGVINPYNGDTTYNQKFQGRVTVAVDKSATTAYMELSSLRSEDTAVYYCARYPESTYWGQGTLVTVSS VL: DIVMTQTPLSLPVTLGQPASISCRSSQSLVHINGNTYLHWYLQRPGQSPKVLIYKVSNRFSGVPDRFSGSGSGTDFTLKISRVEAEDVGVYFCSQSTHVPLTFGAGTKVEIK")
648

Given humanized 6H3 variant 6 (antibody, V domains shown, also called V6; Variant 6 (antibody)) VH: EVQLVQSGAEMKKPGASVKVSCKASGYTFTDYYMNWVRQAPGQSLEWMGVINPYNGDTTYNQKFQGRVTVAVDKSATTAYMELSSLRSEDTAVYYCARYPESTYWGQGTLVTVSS VL: DVVMTQSPLSLPVTLGQPASISCRSSQSLVHINGNTYLHWYLQRPGQSPKVLIYKVSNRFSGVPDRFSGSGSGTDFTLKISRVEAEDVGVYFCSQSTHVPLTFGGGTKVEIK , state its recorded Bmax(MFI).
526
